pIC50 values by entry
Target: full-length beta-Catenin (Uniprot ID P35222) (Homo sapiens)
Construct: 10 nM full-length beta-Catenin (Uniprot ID P35222)
Sequence (P35222 whole entry): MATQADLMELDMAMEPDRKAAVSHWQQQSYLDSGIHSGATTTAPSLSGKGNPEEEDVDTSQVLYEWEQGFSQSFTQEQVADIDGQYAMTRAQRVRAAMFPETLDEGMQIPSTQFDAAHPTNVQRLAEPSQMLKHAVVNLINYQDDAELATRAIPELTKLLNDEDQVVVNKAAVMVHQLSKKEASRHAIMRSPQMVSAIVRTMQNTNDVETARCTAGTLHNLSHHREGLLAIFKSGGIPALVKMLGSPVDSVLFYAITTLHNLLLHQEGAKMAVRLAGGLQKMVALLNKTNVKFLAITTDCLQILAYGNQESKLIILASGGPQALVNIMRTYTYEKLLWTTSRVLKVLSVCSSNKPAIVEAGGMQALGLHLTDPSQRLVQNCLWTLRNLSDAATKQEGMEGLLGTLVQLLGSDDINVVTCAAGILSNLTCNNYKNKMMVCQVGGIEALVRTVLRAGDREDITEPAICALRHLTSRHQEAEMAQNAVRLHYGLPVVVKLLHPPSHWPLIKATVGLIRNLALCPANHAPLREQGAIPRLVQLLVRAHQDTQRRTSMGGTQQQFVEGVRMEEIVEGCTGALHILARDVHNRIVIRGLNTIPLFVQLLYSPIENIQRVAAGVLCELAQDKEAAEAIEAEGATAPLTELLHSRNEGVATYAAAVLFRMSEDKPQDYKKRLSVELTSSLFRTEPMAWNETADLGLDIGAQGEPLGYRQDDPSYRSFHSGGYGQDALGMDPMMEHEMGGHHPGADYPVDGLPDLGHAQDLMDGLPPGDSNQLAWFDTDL
Test: Fluorescence polarization IC50 (beta-catenin / 5FAM-TCF4 10-53 competition)
Assay type: binding
Conditions: fluorescence polarization; read-out: beta-Catenin FP IC50
Here pIC50 is given on a logarithmic scale as minus log10 of the concentration in mol/L.

Note to self: pIC50 recorded for CC(C)C[C@@H]1NC(=O)[C@H](Cc2ccccc2)NC(=O)[C@H](C)NC(=O)[C@H](C)NC(=O)[C@H](Cc2cccc(C(=O)O)c2)NC(=O)[C@H](CC(=O)O)NC(=O)C2(CCCC=CCCCOC(=O)N3CC[C@@](C(=O)N[C@@H](Cc4ccccc4Cl)C(=O)N[C@@H](Cc4csc5ccccc45)C(=O)N[C@@H](CCC(N)=O)C(N)=O)(C3)NC1=O)CCCC=CCCC(=O)N1CCCC1C(=O)N[C@@H](CC(=O)O)C(=O)N[C@@H](CC(C)(C)C)C(=O)N2 (some centres unmarked) was 6.49

The measured pIC50 associated with CC(=O)N1CCC[C@]12CC=CCCCC1(CCCC=CCCCOC(=O)N3CC[C@@](C(=O)N[C@@H](Cc4ccsc4)C(=O)N[C@@H](Cc4ccc(C)c(C)c4)C(=O)N[C@@H](C)C(N)=O)(C3)NC(=O)[C@H](C(C)C)NC(=O)[C@H](Cc3ccccc3)NC(=O)[C@H](C)NC(=O)[C@H](CCC(N)=O)NC(=O)[C@H](Cc3cccc(C(=O)O)c3)NC(=O)[C@H](CC(=O)O)NC1=O)NC(=O)[C@H](CC(C)(C)C)NC(=O)[C@H](CC(=O)O)NC2=O (some centres unmarked) reads 8.05
